Each entry below carries its recorded glycan array binding signal (z-score).
target_or_system: Man(a1-3)[Man(a1-6)]Man(a1-6)[Man(a1-2)Man(a1-3)]Man(b1-4)GlcNAc(b1-4)GlcNAc
assay: glycan array binding signal (z-score within array); higher = stronger binding
assay_setup: glycan notation: IUPAC condensed, linker removed
Many of the other results were omitted from the sample, so the strongest signals are more common in it than they were.

binder | glycan array binding signal (z-score)
RS2L (Ralstonia solanacearum), B5RXL5_RALSO (protein) MAQQGVFTLPANTSFGVTAFANAANTQTIQVLVDNVVKATFTGSGTSDKLLGSQVLNSGSGAIKIQVSVNGKPSDLVSNQTILANKLNFAMVGSEDGTDNDYNDGIAVLNWPLG | 6.99
Clone646PsrP (Streptococcus pneumoniae) (protein) MDHHHHHHHHASENLYFQGAPAINASLNIAKSETKVYTGEGVDSVYRVPIYYKLKVTNDGSKLTFTYTVTYVNPKTNDLGNISSMRPGYSIYNSGTSTQTMLTLGSDLGKPSGVKNYITDKNGRQVLSYNTSTMTTQGSGYTWGNGAQMNGFFAKKGYGLTSSWTVPITGTDTSFTFTPYAARTDRIGINYFNGGGKVVESSTTSQSLSQSKSLSVSAS | 1.06
PfulAvr4 (Pseudocercospora fuligena) (protein) HHHHHHDYKDDDDKTYVQDKTPAFVCPAADIKTTKCLGPKDCLYPSPKTCNGYIQCSPADDSYLTGIIHEMPCPSGLLWNDNKKWCDWPENTTCGLVKSAGATEVDATKQGPTPGKYHG | 0.011
ConA (Canavalia ensiformis), P02866 (protein) MAISKKSSLFLPIFTFITMFLMVVNKVSSSTHETNALHFMFNQFSKDQKDLILQGDATTGTDGNLELTRVSSNGSPQGSSVGRALFYAPVHIWESSAVVASFEATFTFLIKSPDSHPADGIAFFISNIDSSIPSGSTGRLLGLFPDANVIRNSTTIDFNAAYNADTIVAVELDTYPNTDIGDPSYPHIGIDIKSVRSKKTAKWNMQNGKVGTAHIIYNSVDKRLSAVVSYPNADSATVSYDVDLDNVLPEWVRVGLSASTGLYKETNTILSWSFTSKLKSNEIPDIATVV | 4.75
BC2L-A (Burkholderia cenocepacia), Q1BKJ8_BURCA (protein) ADSQTSSNRAGEFSIPPNTDFRAIFFANAAEQQHIKLFIGDSQEPAAYHKLTTRDGPREATLNSGNGKIRFEVSVNGKPSATDARLAPINGKKSDGSPFTVNFGIVVSEDGHDSDYNDGIVVLQWPIG | 5.49
CBM13 2a (Mycobacterium tuberculosum), P64849 (protein) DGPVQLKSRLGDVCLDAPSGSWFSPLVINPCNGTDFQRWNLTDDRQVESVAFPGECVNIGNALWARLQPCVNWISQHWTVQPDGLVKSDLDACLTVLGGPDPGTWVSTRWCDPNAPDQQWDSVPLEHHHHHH | 6.51
RBMC1 (Vibrio cholerae) (protein) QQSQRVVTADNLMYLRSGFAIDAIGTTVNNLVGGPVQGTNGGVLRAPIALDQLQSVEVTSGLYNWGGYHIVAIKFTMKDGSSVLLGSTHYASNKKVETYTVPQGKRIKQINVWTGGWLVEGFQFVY | 0.166
